# System: green foxtail
# assay: Test C pre-/postemergence test
# Format: in vivo, Setaria viridis
# assay-context: Preemergence, 31 g ai/ha; scale 0 to 100 (0 no effect, 100 complete control)
Measured Plant response rating, Foxtail, Green, listed per entry for reference.
observable: Plant response rating, Foxtail, Green

>>> df
                                   compound                             observable  experimental_value
0  C#CCOc1c(CS(=O)(=O)c2cccc[n+]2[O-])c(C(F)(F)F)nn1C  Plant response rating, Foxtail, Green                  60
1  Cn1nc(OC(F)F)c(CS(=O)(=O)c2cccc[n+]2[O-])c1C(F)(F)F  Plant response rating, Foxtail, Green                  85
2  Cn1nc(C(F)(F)F)c(C[S+]([O-])c2ccc(F)c[n+]2[O-])c1Cl (stereo not shown)  Plant response rating, Foxtail, Green                  60
3  Cc1cc[n+]([O-])c([S+]([O-])Cc2c(C(F)(F)F)nn(C)c2OCC(F)(F)F)c1 (racemic)  Plant response rating, Foxtail, Green                 100

---

Item-by-item account of Barnyardgrass plant response rating
# System: barnyardgrass
# assay: Test A pre-/postemergence greenhouse test
# Type: in vivo, Echinochloa crus-galli
# assay-context: Preemergence, 125 g ai/ha; 0 to 100 scale, 0 no effect, 100 complete control
observable: Barnyardgrass plant response rating

In [3]: df
Out[3]:
                                   compound                           observable  experimental_value
0  Cc1cc[n+]([O-])c([S+]([O-])C(C)c2c(C(F)(F)F)nn(C)c2Cl)c1 (mixture of isomers) [Compound 15]  Barnyardgrass plant response rating                   0
1  CCc1cc[n+]([O-])c([S+]([O-])Cc2c(C(F)(F)F)nn(C)c2OCC(F)(F)F)c1 (stereo not drawn) [Compound 59]  Barnyardgrass plant response rating                 100
2  Cc1cc[n+]([O-])c(S(=O)(=O)Cc2c(C(F)(F)F)nn(C)c2OC(F)F)c1 [Compound 2]  Barnyardgrass plant response rating                  90

---

# Tested on: redroot pigweed
# assay: Test A pre-/postemergence greenhouse test
# Type: in vivo, Amaranthus retroflexus
# assay-context: Preemergence, 125 g ai/ha; 0 to 100 scale, 0 no effect, 100 complete control
observable: Pigweed plant response rating

In [3]: df
Out[3]:
                                    compound      test_system  experimental_value
 0  CCc1cc[n+]([O-])c([S+]([O-])Cc2c(C(F)(F)F)nn(C)c2OCC(F)(F)F)c1 (stereo not shown)  redroot pigweed                 100
 1  Cn1nc(C(F)(F)F)c(C[S+]([O-])c2cccc[n+]2[O-])c1OCC(F)F (stereo not shown)  redroot pigweed                  80
 2  Cc1cc[n+]([O-])c([S+]([O-])Cc2c(C(F)(F)C(F)(F)F)nn(C)c2OCC(F)(F)F)c1 (stereo not shown)  redroot pigweed                  90
 3  Cn1nc(C(F)(F)F)c(C[S+]([O-])c2cccc[n+]2[O-])c1OC(F)F (stereo not shown)  redroot pigweed                 100
 4  Cn1nc(C(F)(F)F)c(CS(=O)(=O)c2cccc[n+]2[O-])c1OCC(F)(F)F  redroot pigweed                 100
 5  C#CCOc1c(CS(=O)(=O)c2cccc[n+]2[O-])c(C(F)(F)F)nn1C  redroot pigweed                  60
 6  Cn1nc(C(F)(F)F)c(C[S+]([O-])c2cc(Cl)cc[n+]2[O-])c1OCC(F)(F)F (stereo not shown)  redroot pigweed                  40
 7  CCCc1cc[n+]([O-])c(S(=O)(=O)Cc2c(C(F)(F)F)nn(C)c2OCC(F)(F)F)c1  redroot pigweed                 100
 8  CC(c1c(C(F)(F)F)nn(C)c1Cl)[S+]([O-])c1cccc[n+]1[O-] (mixture of isomers)  redroot pigweed                   0
 9  Cc1cc[n+]([O-])c([S+]([O-])Cc2c(C(F)(F)F)nn(C)c2OC(F)F)c1 (stereo not shown)  redroot pigweed                 100
10  CC(Oc1c(CS(=O)(=O)c2ccc(Cl)c[n+]2[O-])c(C(F)(F)F)nn1C)C(F)(F)F (stereo not shown)  redroot pigweed                   0
11  [O-][n+]1cc(Cl)ccc1[S+]([O-])Cc1c(C(F)(F)F)nn(CC(F)(F)F)c1Cl (stereo not shown)  redroot pigweed                 100
12  Cn1nc(C(F)(F)F)c(C[S+]([O-])c2ccc(F)c[n+]2[O-])c1OCC(F)(F)F (stereo not shown)  redroot pigweed                 100
13  CC(c1c(C(F)(F)F)nn(C)c1Cl)S(=O)(=O)c1ccc(Cl)c[n+]1[O-] (racemic)  redroot pigweed                  60
14  Cn1nc(C(F)(F)F)c(CS(=O)(=O)c2cccc[n+]2[O-])c1OCC(F)(F)C(F)(F)F  redroot pigweed                  10
15  O=S(=O)(Cc1c(C(F)(F)F)nn(CC(F)(F)F)c1Cl)c1cccc[n+]1[O-]  redroot pigweed                   0
